Values compiled from patent US20200270557A1.

Tested on: H1975 NSCLC cells
Assay: growth inhibition of H1975 NSCLC cells cultured alone under conventional static culture conditions
Assay type: cell-based
Settings: Homo sapiens, NCI-H1975, read-out: half-maximal inhibition
pIC50: −log10 of the molar value.
readout-type: pIC50

C=CC(=O)Nc1cccc(Nc2nc(Nc3ccc(N4CCN(C(C)=O)CC4)cc3OC)ncc2C(F)(F)F)c1
< 6.00

// moving on: another record for pIC50
Prompt: Could you share which pIC50 value was measured for C#Cc1cccc(Nc2ncnc3cc(OCCOC)c(OCCOC)cc23)c1 ?
Response: ~7.00
